These entries and their values trace back to patent US12390437B2.

# System: IL-6 cytokine output from THP-1s
# assay-overview: THP-1 AlphaLISA IL-6 cytokine assay
# Assay type: cell-based, human
# test-conditions: Homo sapiens; PMA-differentiated THP-1 cells, LPS 24 hr then Nigericin 1 hour
measured-endpoint: IC50 (µM)

Examples from the recorded data:
{"compound": "C=C(CC(=O)OC1CCCCCCC1)C(=O)OC1CS(=O)(=O)C1", "measured-number": 1.5}
{"compound": "C=C(CC(=O)OCCCOCC)C(=O)OCC(=O)O", "measured-number": 56.2}
{"compound": "C=C(CC(=O)OCCCCCC)C(=O)OCC(=O)NS(=O)(=O)N(C)C", "measured-number": 14}

1. C=C(CC(=O)OC1CCCCCCC1)C(=O)OCCS(C)(=O)=O
2. C=C(C(=O)O[C@H]1CCOC1)C(C)C(=O)OCCCCCCCC (some centres unmarked)
Out of 1 and 2 , name the one with the higher IC50. // return label of chosen record
2

====

# assay-overview: Mouse pharmacokinetic study, intravenous dosing
# Assay type: in vivo
# test-conditions: male, C57BL/6, mouse, iv; plasma, 10 mg/kg i.v., time 6 h; read-out: Parent compound concentration following intravenous administration
measured-endpoint: concentration at 6 h

{"molecule": "C=C(CC(=O)O[C@@H](C)CCCCCC)C(=O)OCc1nn[nH]n1", "measured-endpoint": "concentration at 6 h", "result": "< 4 ng/mL"}

// "C=C(CC(=O)OCCCCCC)C(=O)OCC(=O)O" : concentration at 6 h value = < 0.8 ng/mL

The molecule listed as "C=C(CC(=O)O[C@H]1C[C@H]2CC[C@]1(C)C2(C)C)C(=O)OCC(=O)O" has a reported concentration at 6 h of < 4 ng/mL

Sample "C=C(CC(=O)OC12CC3CC(CC(C3)C1)C2)C(=O)OCC(=O)O" ; concentration at 6 h observed: < 4 ng/mL

"C=C(CC(=O)OC(C)(C)CCCCCC)C(=O)OCC(=O)O" has a reported concentration at 6 h of < 4 ng/mL

====

# Tested on: IL-1β cytokine output from THP-1s
# assay-overview: THP-1 AlphaLISA IL-1β cytokine assay
# Assay type: cell-based, human
# test-conditions: Homo sapiens, THP-1, PMA-differentiated THP-1 cells, LPS 24 hr then Nigericin 1 hour; read-out: IL-1β (IC50)
measured-endpoint: IC50 (µM)

Examples with answers:
{"molecule": "C=C(CC(=O)OCCCCCC)C(=O)OCCc1nnn[nH]1", "system-name": "IL-1β cytokine output from THP-1s", "unit-abbreviation": "µM", "IC50": 4.2}
{"molecule": "C=C(CC(=O)O[C@@H](C)CCCCCC)C(=O)OC1CS(=O)(=O)C1", "system-name": "IL-1β cytokine output from THP-1s", "unit-abbreviation": "µM", "IC50": 5.7}
{"molecule": "C=C(CC(=O)OCCCCCCCC)C(=O)OCCN1C(=O)CCC1=O", "system-name": "IL-1β cytokine output from THP-1s", "unit-abbreviation": "µM", "IC50": 4.7}
{"molecule": "C=C(CC(=O)OC1CCCCC1)C(=O)OC(C(=O)O)C(F)(F)F (stereo not drawn)", "system-name": "IL-1β cytokine output from THP-1s", "unit-abbreviation": "µM", "IC50": 54.2}
{"molecule": "C=C(CC(=O)OC1CC2(CCC2)C1)C(=O)OCC(=O)O", "system-name": "IL-1β cytokine output from THP-1s", "unit-abbreviation": "µM", "IC50": 15.7}
{"molecule": "C=C(CC(=O)OCC(C)(C)C)C(=O)OCC(=O)O", "system-name": "IL-1β cytokine output from THP-1s", "unit-abbreviation": "µM", "IC50": 75.3}

1. C=C(CC(=O)OCCCCCCCC)C(=O)OC1(C)COC1
2. C=C(CC(=O)OCCCCCC)C(=O)OCCN1CCCC1=O
Rank 1 against 2 by their IC50 values and give the higher one. Mark your selection by writing its label.
1
